procedure.text: in vitro
condition.parameters: rat, gh3-tre-luc cells, AC50 (uM) modified / 1000, Tox21_110001=Tox21_202442; viability, 1 nM T3 present, 24 h

>  <compound>
O=C(Nc1ccc(Br)cc1)c1cc(Br)cc(Br)c1O [Tribromsalan]

>  <units.label>
µM

>  <CC50 at 24 h>
5.41

$$$$

----------
procedure.text: in vitro
condition.parameters: rat, gh3-tre-luc cells, AC50 (uM) modified / 1000
Structures can show the parent of a compound that is named as a salt. Positions of bridges follow the written chain, without caps; N, C: chain ends. Residues, ends and D or L forms follow the SMILES beside them.
readout.label: CC50 at 24 h

>  <compound>
O=C(O)[C@H](O)[C@@H](O)C(=O)O

>  <meas.value>
> 90 µM

$$$$
>  <compound>
O=C(Nc1ccc(Cl)cc1)Nc1ccc(Cl)c(Cl)c1

>  <meas.value>
6.61 µM

$$$$
>  <compound>
COc1nc(C)nc(NC(=O)NS(=O)(=O)c2ccccc2OCCCl)n1

>  <meas.value>
> 90 µM

$$$$
>  <compound>
Cc1ccc(=O)n(-c2ccccc2)c1

>  <meas.value>
> 50 µM

$$$$
>  <compound>
O=C(NC(=O)c1c(F)cccc1F)Nc1ccc(Cl)c(Oc2ncc(C(F)(F)F)cc2Cl)c1

>  <meas.value>
> 50 µM

$$$$
>  <compound>
CCOc1ccc(/N=N/c2ccc(N)cc2N)cc1

>  <meas.value>
> 50 µM

$$$$
>  <compound>
CCC(C)OC(=O)N1CCCCC1CCO (stereo not shown)

>  <meas.value>
> 90 µM

$$$$
>  <compound>
NCCCC[C@H](NC(=O)[C@@H]1CCCN1C(=O)[C@@H]1CSSC[C@H](N)C(=O)N[C@@H](Cc2ccccc2)C(=O)N[C@@H](Cc2ccccc2)C(=O)N[C@@H](CCC(N)=O)C(=O)N[C@@H](CC(N)=O)C(=O)N1)C(=O)NCC(N)=O [Felypressin] (H-CFFQNCPKG-NH2; disulfide 1-6)

>  <meas.value>
> 50 µM

$$$$
>  <compound>
CCCc1c(OCCCOc2ccc(OCC(=O)O)cc2)ccc(C(C)=O)c1O

>  <meas.value>
> 90 µM

$$$$
>  <compound>
Oc1ccc2c3c1O[C@H]1[C@@H](O)CC[C@@]4(O)[C@@H](C2)N(CC2CCC2)CC[C@]314

>  <meas.value>
> 50 µM

$$$$
>  <compound>
CC1(C)N=C(N)N=C(N)N1c1ccc(Cl)cc1 [Cycloguanil hydrochloride]

>  <meas.value>
> 50 µM

$$$$
>  <compound>
O=C1CCCCCCCCCCOCCCCO1 [12-Oxahexadecanolide]

>  <meas.value>
> 90 µM

$$$$
>  <compound>
CC(O)CNCC(C)O (stereo not shown)

>  <meas.value>
> 90 µM

$$$$
>  <compound>
CCN(CC)CCOc1ccc2nc(N(C)C)sc2c1

>  <meas.value>
> 50 µM

$$$$
>  <compound>
CCCCCCCCOC(=O)c1cc(O)c(O)c(O)c1 [Octyl gallate]

>  <meas.value>
2.6 µM

$$$$
>  <compound>
CC(=O)OCC(=O)[C@@]1(O)CC[C@H]2[C@@H]3CCC4=CC(=O)C=C[C@]4(C)[C@H]3[C@@H](O)C[C@@]21C [Prednisolone acetate]

>  <meas.value>
> 50 µM

$$$$
>  <compound>
C[C@]12CC[C@H](O)CC1=CC[C@@H]1[C@@H]2CC[C@]2(C)C(=O)CC[C@@H]12 [Dehydroepiandrosterone]

>  <meas.value>
> 90 µM

$$$$
>  <compound>
C#CC(C)(C)NC(=O)c1cc(Cl)cc(Cl)c1 [Propyzamide]

>  <meas.value>
> 90 µM

$$$$
>  <compound>
CCC(=O)O[C@H]1[C@@H](N2CCCCC2)C[C@H]2[C@@H]3CC[C@H]4C[C@H](OC(C)=O)[C@@H](N5CCCCC5)C[C@]4(C)[C@H]3CC[C@@]21C

>  <meas.value>
> 50 µM

$$$$
>  <compound>
CCC(=O)OCCC(C)CCC=C(C)C (stereo not shown) [Citronellyl propionate]

>  <meas.value>
> 90 µM

$$$$
>  <compound>
CCCCCCCCC=CCCCCCCCC1=NCCN1CCO

>  <meas.value>
23.2 µM

$$$$
>  <compound>
NC(=O)CC[C@H](Nc1ccc([N+](=O)[O-])cc1)C(=O)O

>  <meas.value>
> 90 µM

$$$$
>  <compound>
C[C@H](Cc1ccc(O)c(O)c1)[C@@H](C)Cc1ccc(O)c(O)c1 [Nordihydroguaiaretic acid]

>  <meas.value>
8.42 µM

$$$$
>  <compound>
COc1nc(C)nc(NC(=O)NS(=O)(=O)c2ccccc2Cl)n1

>  <meas.value>
> 90 µM

$$$$
>  <compound>
CN(C)CCC(c1ccc(Cl)cc1)c1ccccn1 (stereo not shown) [Chlorpheniramine maleate]

>  <meas.value>
40.4 µM

$$$$
>  <compound>
C=COCCOCCOCCOC=C

>  <meas.value>
> 90 µM

$$$$
>  <compound>
CC1(C)C(=O)N(Cl)C(=O)N1Cl

>  <meas.value>
> 90 µM

$$$$
>  <compound>
Oc1ccc(C2(c3ccc(O)cc3)CCCCC2)cc1

>  <meas.value>
39.8 µM

$$$$
>  <compound>
O=C(O)c1cc(O)c2ccccc2c1O [1,4-Dihydroxy-2-naphthoic acid]

>  <meas.value>
12.2 µM

$$$$
>  <compound>
CCC[N+]1(C)CCCC1 [1-Methyl-1-propylpyrrolidinium bromide]

>  <meas.value>
> 90 µM

$$$$
>  <compound>
CCCC(=O)OCC [Ethyl butyrate]

>  <meas.value>
> 90 µM

$$$$
>  <compound>
CCCCCCCCNC

>  <meas.value>
> 90 µM

$$$$
>  <compound>
ON(Cc1ccccc1)Cc1ccccc1 [N-Benzyl-N-hydroxy-1-phenylmethanamine]

>  <meas.value>
> 90 µM

$$$$
>  <compound>
COc1cccc(N(C)C(=S)Oc2ccc3c(c2)CCCC3)n1 [Liranaftate]

>  <meas.value>
> 50 µM

$$$$
>  <compound>
Cc1ccc(C)o1

>  <meas.value>
> 90 µM

$$$$
>  <compound>
CCOC(=O)c1cccnc1 [Ethyl nicotinate]

>  <meas.value>
> 50 µM

$$$$
>  <compound>
NC(=O)c1cnccn1 [Pyrazinamide]

>  <meas.value>
> 90 µM

$$$$

----------
procedure.text: in vitro
condition.parameters: rat, gh3-tre-luc cells, AC50 (uM) modified / 1000, Tox21_110001=Tox21_201566; viability, 1 nM T3 present, 24 h
readout.label: CC50 at 24 h

>  <substance.smiles>
COc1ccc(C=O)cc1OC

>  <meas.value>
> 90 µM

$$$$

----------
procedure.text: in vitro
condition.parameters: rat, gh3-tre-luc cells, AC50 (uM) modified / 1000, Tox21_110001=Tox21_200456; viability, 1 nM T3 present, 24 h

>  <substance.smiles>
CCCCCCCCCCCCCCCl

>  <CC50 at 24 h>
> 90 µM

$$$$

----------
procedure.text: in vitro
condition.parameters: rat, gh3-tre-luc cells, AC50 (uM) modified / 1000, Tox21_110001=Tox21_302063; viability, 1 nM T3 present, 24 h

>  <molecule>
CCOC(=O)CC(=O)CCl [Ethyl 4-chloro-3-oxobutanoate]

>  <CC50 at 24 h>
76.9 µM

$$$$

----------
procedure.text: in vitro
condition.parameters: rat, gh3-tre-luc cells, AC50 (uM) modified / 1000, Tox21_110001=Tox21_201548; viability, 1 nM T3 present, 24 h

>  <compound>
CN=C=S [Methyl isothiocyanate]

>  <CC50 at 24 h>
> 90 µM

$$$$

----------
Tested on: Tox21 cell viability assays (different cell types)
procedure.text: Global cytotoxicity: eighteen Tox21 cell viability assays
Type: cell-based
Structures can show the parent of a compound that is named as a salt.
Overview of reported Active in global cytotoxicity assays (%) across a group of molecules:
readout.label: Active in global cytotoxicity assays (%)

>  <molecule>
N#CC(c1ccc(Cl)cc1)c1c(Cl)cc(-n2ncc(=O)[nH]c2=O)cc1Cl (stereo not shown)

>  <meas.value>
33.3

$$$$
>  <molecule>
N=C1C=CC(=C(c2ccc(N)cc2)c2ccc(N)cc2)C=C1 [C.I. Basic Red 9 monohydrochloride]

>  <meas.value>
66.7

$$$$
>  <molecule>
CN(C)c1ccc(/N=N/c2ccccc2C(=O)O)cc1

>  <meas.value>
48.5

$$$$
>  <molecule>
COC(=O)C1=C(C)NC(C)=C(C(=O)OCCN2CCN(C(c3ccccc3)c3ccccc3)CC2)C1c1cccc([N+](=O)[O-])c1 (stereo not shown) [Manidipine dihydrochloride]

>  <meas.value>
28.8

$$$$

----------
procedure.text: in vitro
condition.parameters: rat, gh3-tre-luc cells, AC50 (uM) modified / 1000, Tox21_110001=Tox21_110368; viability, 1 nM T3 present, 24 h
readout.label: CC50 at 24 h

>  <substance.smiles>
CCC1(CC)C(=O)C=CNC1=O

>  <meas.value>
> 50 µM

$$$$

Every entry's value here was drawn from paper PMC6792352.
